These data points were gathered from the supplement of paper PMC10065799.

# TEST SYSTEM: MERTK (UniProt Q12866)
# Sequence (Q12866 whole entry, looked up): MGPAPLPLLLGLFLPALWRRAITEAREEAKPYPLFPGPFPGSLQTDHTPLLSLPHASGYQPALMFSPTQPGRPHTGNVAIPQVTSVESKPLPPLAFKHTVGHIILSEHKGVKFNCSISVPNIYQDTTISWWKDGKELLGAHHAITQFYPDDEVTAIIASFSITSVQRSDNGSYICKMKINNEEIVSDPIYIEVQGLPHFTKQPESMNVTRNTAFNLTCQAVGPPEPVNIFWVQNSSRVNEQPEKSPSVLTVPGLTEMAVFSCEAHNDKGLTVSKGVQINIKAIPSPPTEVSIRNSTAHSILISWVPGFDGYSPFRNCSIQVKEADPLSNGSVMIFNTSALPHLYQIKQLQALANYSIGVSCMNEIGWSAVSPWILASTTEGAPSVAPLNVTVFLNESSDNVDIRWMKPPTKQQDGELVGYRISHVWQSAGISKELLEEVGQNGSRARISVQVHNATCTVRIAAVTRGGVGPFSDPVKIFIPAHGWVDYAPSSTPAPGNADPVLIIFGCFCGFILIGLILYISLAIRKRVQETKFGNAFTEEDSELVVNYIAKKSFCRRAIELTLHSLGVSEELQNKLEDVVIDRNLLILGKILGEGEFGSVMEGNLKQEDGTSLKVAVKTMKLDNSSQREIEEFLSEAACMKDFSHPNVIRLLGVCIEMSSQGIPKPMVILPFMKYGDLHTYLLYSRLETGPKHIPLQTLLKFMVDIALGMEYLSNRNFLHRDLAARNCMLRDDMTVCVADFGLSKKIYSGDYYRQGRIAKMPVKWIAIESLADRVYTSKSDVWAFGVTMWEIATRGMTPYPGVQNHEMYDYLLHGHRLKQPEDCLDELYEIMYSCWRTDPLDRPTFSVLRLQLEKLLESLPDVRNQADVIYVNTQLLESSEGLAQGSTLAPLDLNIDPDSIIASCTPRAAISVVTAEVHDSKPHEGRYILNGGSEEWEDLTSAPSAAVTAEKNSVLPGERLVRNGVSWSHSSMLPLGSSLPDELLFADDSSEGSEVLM
# PROTOCOL TEXT: phosphorylation enrichment, bacterial display (enrichment ratio); higher = better substrate or ligand; peptides without Tyr show the background;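 further: 11-residue human phosphosite peptides and single-mutation variants displayed on the E. coli surface, counted by deep sequencing, each peptide's frequency after selection divided by its frequency in the unselected input library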;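 further: frequency after pTyr selection over input frequency; kinase dosed for 20-30% of maximal phosphorylation in three min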
Listed here are sequences together with their documented phosphorylation enrichment.
MEASURED PROPERTY: phosphorylation enrichment

{"SEQUENCE ENTRY": "QRRYLYYYSYL [PTEN_Y176_V175L]", "MEASUREMENT": 7.18}
{"SEQUENCE ENTRY": "LGGAMYYLEAD [PKHD1_Y452_E457D]", "MEASUREMENT": 1.62}
{"SEQUENCE ENTRY": "KDHPDYKYQAR [SOX10_Y171_P175A]", "MEASUREMENT": 0.39}
{"SEQUENCE ENTRY": "FKWAVYCIIGR [NUP93_Y391_R388W_YF]", "MEASUREMENT": 0.534}
{"SEQUENCE ENTRY": "PRIKTYMRPSP [TDP1_Y497_H493R]", "MEASUREMENT": 0.44}
{"SEQUENCE ENTRY": "GLRSYYETSKM [MAGED2_Y449]", "MEASUREMENT": 0.546}
{"SEQUENCE ENTRY": "RLLRGYDQLAF [HLA-C_Y137_S140L_YF]", "MEASUREMENT": 0.495}
{"SEQUENCE ENTRY": "AYRHGYFDEEM [PLEC_Y2971_R2969H]", "MEASUREMENT": 0.5}
{"SEQUENCE ENTRY": "IRQGHYESLKE [MTR_Y921_D919G]", "MEASUREMENT": 0.457}
{"SEQUENCE ENTRY": "SVVVPNEPPEV [TP53_Y220_Y220N]", "MEASUREMENT": 0.439}
{"SEQUENCE ENTRY": "FTRNYYVRAVL [CYBA_Y88]", "MEASUREMENT": 0.506}
{"SEQUENCE ENTRY": "FVSIVCNDSGE [TSC2_Y1650_Y1650C]", "MEASUREMENT": 0.464}
{"SEQUENCE ENTRY": "LNEWHYGGLTG [PGAM2_Y92_R90W]", "MEASUREMENT": 0.365}
{"SEQUENCE ENTRY": "QEGPEYWDRNT [HLA-B_Y83]", "MEASUREMENT": 0.49}
{"SEQUENCE ENTRY": "PFTRNYFVQAV [CYBA_Y87_R90Q_YF]", "MEASUREMENT": 0.763}
{"SEQUENCE ENTRY": "PESCFYKESWL [IQGAP2_Y630_L629F]", "MEASUREMENT": 0.538}
{"SEQUENCE ENTRY": "AGADGYDFLAP [FOXL2_Y186_G187D_YF]", "MEASUREMENT": 0.708}
{"SEQUENCE ENTRY": "NGLVAYKDGKL [PMM2_Y76]", "MEASUREMENT": 0.429}
{"SEQUENCE ENTRY": "VGGRIYIDDAL [PKLR_Y218_G222A]", "MEASUREMENT": 0.402}
{"SEQUENCE ENTRY": "PEVSGYCHCAD [TG_Y234]", "MEASUREMENT": 0.936}
{"SEQUENCE ENTRY": "ETLLFYGCRRS [POR_Y564_YF]", "MEASUREMENT": 0.424}
{"SEQUENCE ENTRY": "LLANAYIFDVQ [L1CAM_Y418_V421D_YF]", "MEASUREMENT": 0.718}
{"SEQUENCE ENTRY": "FVPSFYHAFSG [ACTN4_Y265_S262P_YF]", "MEASUREMENT": 7.34}
{"SEQUENCE ENTRY": "SPYMLYQYLKQ [RPAP3_Y567_D564Y]", "MEASUREMENT": 9.38}
{"SEQUENCE ENTRY": "ALHRPYGCDVE [ABL2_Y80]", "MEASUREMENT": 0.357}
{"SEQUENCE ENTRY": "KHCEDYVCSFN [DSC1_Y846_YF]", "MEASUREMENT": 0.424}
{"SEQUENCE ENTRY": "RENGPYFTSFP [GDAP2_Y487_YF]", "MEASUREMENT": 0.568}
{"SEQUENCE ENTRY": "KGELCYMHSRV [ABCD1_Y281_R280C]", "MEASUREMENT": 0.563}
{"SEQUENCE ENTRY": "LQPNNCQFCGG [CSF1R_Y969_Y969C]", "MEASUREMENT": 0.785}
{"SEQUENCE ENTRY": "FGGRDYSLDEF [MYOF_Y1705_YF]", "MEASUREMENT": 0.405}
{"SEQUENCE ENTRY": "WVYNHYRWIIW [BRCA2_Y2624]", "MEASUREMENT": 0.301}
{"SEQUENCE ENTRY": "GITVTYTIPKK [UBA5_Y372_A371T]", "MEASUREMENT": 1.49}
{"SEQUENCE ENTRY": "KVKPIYLHTQG [AR_Y916_F917L]", "MEASUREMENT": 0.54}
{"SEQUENCE ENTRY": "EMTAEYTCTRK [ACAD9_Y325_A326T]", "MEASUREMENT": 0.465}
{"SEQUENCE ENTRY": "SAVTGYRVDVI [FN1_Y937]", "MEASUREMENT": 0.358}
{"SEQUENCE ENTRY": "ADGLEYSRTEL [MMUT_Y287_G291E]", "MEASUREMENT": 0.437}
{"SEQUENCE ENTRY": "LRYEVYGGENE [STOX1_Y610]", "MEASUREMENT": 0.499}
{"SEQUENCE ENTRY": "QWQQLYDTLNA [EIF3M_Y351]", "MEASUREMENT": 6.06}
{"SEQUENCE ENTRY": "ALARKYHGGGG [HBB_Y146_H144R]", "MEASUREMENT": 0.337}
{"SEQUENCE ENTRY": "KGRAGYTTVAV [RET_Y752]", "MEASUREMENT": 0.415}
{"SEQUENCE ENTRY": "ILIFHYAKGQP [MPZ_Y82_S78L]", "MEASUREMENT": 0.475}

###

# System: Fer (mouse)
# PROTOCOL TEXT: phosphorylation enrichment, bacterial display (enrichment ratio); higher = better substrate or ligand; peptides without Tyr show the background
MEASURED PROPERTY: phosphorylation enrichment

{"SEQUENCE ENTRY": "IFHLSYIHNCE [PDE6B_Y227_L228I_YF]", "MEASUREMENT": 0.526}
{"SEQUENCE ENTRY": "SLIDMYSKVLD [OPA1_Y268_E270K]", "MEASUREMENT": 0.501}
{"SEQUENCE ENTRY": "SFMVRYNQPRV [GRIN2D_Y736_YF]", "MEASUREMENT": 0.423}

###

# TEST SYSTEM: Hck (UniProt P08631)
# Sequence (P08631 whole entry, looked up): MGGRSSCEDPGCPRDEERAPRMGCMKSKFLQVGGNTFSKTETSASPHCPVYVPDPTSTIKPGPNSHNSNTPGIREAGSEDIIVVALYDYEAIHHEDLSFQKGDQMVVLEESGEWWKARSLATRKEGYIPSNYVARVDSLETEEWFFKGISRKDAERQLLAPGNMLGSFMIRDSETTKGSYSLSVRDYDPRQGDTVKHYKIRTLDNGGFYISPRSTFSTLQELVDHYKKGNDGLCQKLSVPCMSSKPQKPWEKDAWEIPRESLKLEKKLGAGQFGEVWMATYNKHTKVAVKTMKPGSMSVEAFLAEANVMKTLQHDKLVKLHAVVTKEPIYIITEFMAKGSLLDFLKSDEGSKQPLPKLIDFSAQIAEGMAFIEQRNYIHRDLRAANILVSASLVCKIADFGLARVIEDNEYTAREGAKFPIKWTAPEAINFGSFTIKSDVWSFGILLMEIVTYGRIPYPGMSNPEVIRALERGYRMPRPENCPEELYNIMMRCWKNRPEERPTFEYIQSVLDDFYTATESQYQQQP
# PROTOCOL TEXT: phosphorylation enrichment, bacterial display (enrichment ratio); higher = better substrate or ligand; peptides without Tyr show the background

{"SEQUENCE ENTRY": "FVKEPYIQSRF [HIPK4_Y175_YF]", "phosphorylation enrichment": 0.402}
{"SEQUENCE ENTRY": "AKLVQYFMEHH [PTPN11_Y80_E76K_YF]", "phosphorylation enrichment": 0.441}
{"SEQUENCE ENTRY": "KDQPDYKFQPR [SOX9_Y172_H169Q_YF]", "phosphorylation enrichment": 0.386}
{"SEQUENCE ENTRY": "FRQNGYIPGSN [PCDHGA1_Y895_V894G_YF]", "phosphorylation enrichment": 0.392}
{"SEQUENCE ENTRY": "ISSLPYMKMIF [SLC4A11_Y853_M848I]", "phosphorylation enrichment": 0.677}
{"SEQUENCE ENTRY": "MGSYNYLGFPR [SPTLC2_Y178_A182P]", "phosphorylation enrichment": 1.39}
{"SEQUENCE ENTRY": "TTKAKYKTPTF [PLD2_Y573_YF]", "phosphorylation enrichment": 0.4}
{"SEQUENCE ENTRY": "CTTIHYSFMCN [TP53_Y234_N235S_YF]", "phosphorylation enrichment": 0.559}
{"SEQUENCE ENTRY": "QDGYSYPSRQM [LDLR_Y847]", "phosphorylation enrichment": 0.475}
{"SEQUENCE ENTRY": "FADIAYNYRHG [PAH_Y166]", "phosphorylation enrichment": 0.462}
{"SEQUENCE ENTRY": "GLTSTYVGIRK [ROBO1_Y932_A933V]", "phosphorylation enrichment": 1.67}
{"SEQUENCE ENTRY": "EAMPDYKKQLR [SPATA18_Y229_S227P]", "phosphorylation enrichment": 0.296}
{"SEQUENCE ENTRY": "PESCFYKESWL [IQGAP2_Y630_L629F]", "phosphorylation enrichment": 0.555}
{"SEQUENCE ENTRY": "VLVSQYEKLDA [AMZ2_Y26_N30D]", "phosphorylation enrichment": 0.484}
{"SEQUENCE ENTRY": "TEQDPYNNIVH [MMUT_Y364_R369H]", "phosphorylation enrichment": 0.586}
{"SEQUENCE ENTRY": "GYDHSYYFIAT [ESD_Y262]", "phosphorylation enrichment": 2.02}
{"SEQUENCE ENTRY": "SVTCMYSPALN [TP53_Y126_T125M]", "phosphorylation enrichment": 0.594}
{"SEQUENCE ENTRY": "QLRPGYFPIPV [BAG3_Y93_I94F]", "phosphorylation enrichment": 0.466}
